Biological target: T1, cynomolgus monkey BCMA (cynomolgus monkey, UniProt A0A2K5UD97 1-53)
T1 construct: Soluble analyte in SPR; construct not described; also called cyBCMA; Cyno BCMA
T1 sequence (A0A2K5UD97 entry or part of it): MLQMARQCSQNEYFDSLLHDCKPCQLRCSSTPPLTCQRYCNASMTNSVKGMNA
Assay: SPR, IgG immobilised, 37 C
Each entry below carries its reported kon.
Number in M⁻¹ s⁻¹, nothing else.

Examples from the recorded data:
1. L3.PY/L1.AH/H2.QR (antibody, V domains shown, IgG) VH: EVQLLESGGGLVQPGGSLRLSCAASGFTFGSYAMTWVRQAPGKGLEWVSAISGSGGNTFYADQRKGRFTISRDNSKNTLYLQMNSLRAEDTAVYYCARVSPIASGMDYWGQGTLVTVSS VL: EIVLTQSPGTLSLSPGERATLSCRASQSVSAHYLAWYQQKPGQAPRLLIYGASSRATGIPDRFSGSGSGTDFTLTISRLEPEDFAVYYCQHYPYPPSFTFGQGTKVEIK | 2.2e+06
2. L3.PY/L1.AH/H2.DY (antibody, V domains shown, IgG) VH: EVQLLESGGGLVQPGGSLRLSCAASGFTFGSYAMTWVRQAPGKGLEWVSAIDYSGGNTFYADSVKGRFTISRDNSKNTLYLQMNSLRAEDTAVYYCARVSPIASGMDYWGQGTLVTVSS VL: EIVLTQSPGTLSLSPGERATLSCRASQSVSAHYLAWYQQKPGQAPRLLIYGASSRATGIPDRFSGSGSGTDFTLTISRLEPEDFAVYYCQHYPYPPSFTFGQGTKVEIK | 2.32e+06
3. L3.PY/L1.PS/H3.YA (antibody, V domains shown, IgG) VH: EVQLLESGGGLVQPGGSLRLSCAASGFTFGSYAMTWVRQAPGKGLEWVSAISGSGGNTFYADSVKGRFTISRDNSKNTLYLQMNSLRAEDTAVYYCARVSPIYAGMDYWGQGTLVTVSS VL: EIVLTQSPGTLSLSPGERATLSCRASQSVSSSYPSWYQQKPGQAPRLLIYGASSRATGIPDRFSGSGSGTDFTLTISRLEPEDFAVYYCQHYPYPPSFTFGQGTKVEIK | 1.77e+06

// L3.PY/L3.KF/P6E01 (antibody, V domains shown, IgG) VH: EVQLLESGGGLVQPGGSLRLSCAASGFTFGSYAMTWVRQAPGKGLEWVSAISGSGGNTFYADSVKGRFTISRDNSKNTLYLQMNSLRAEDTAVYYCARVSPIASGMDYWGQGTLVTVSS VL: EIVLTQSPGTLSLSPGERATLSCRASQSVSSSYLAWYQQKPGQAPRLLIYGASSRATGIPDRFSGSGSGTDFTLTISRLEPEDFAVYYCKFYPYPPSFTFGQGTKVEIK : kon value = 2.39e+06

Briefly, kon measured for L3.PY/H2.DY (antibody, V domains shown, IgG) VH: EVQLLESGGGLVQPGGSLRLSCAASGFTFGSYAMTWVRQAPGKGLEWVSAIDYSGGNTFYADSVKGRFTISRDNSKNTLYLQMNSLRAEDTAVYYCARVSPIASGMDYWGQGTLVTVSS VL: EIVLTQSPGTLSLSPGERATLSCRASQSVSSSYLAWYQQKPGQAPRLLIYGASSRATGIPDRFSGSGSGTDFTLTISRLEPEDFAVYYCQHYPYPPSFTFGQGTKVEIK : 2.24e+06
